B1: HDV Ribozyme (parent)
chain: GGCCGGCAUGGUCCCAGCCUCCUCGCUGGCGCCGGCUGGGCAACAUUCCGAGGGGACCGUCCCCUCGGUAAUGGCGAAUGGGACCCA

variants of: B1; assay: self-cleavage, relative activity (ratio to wild type); higher = more cleavage; co-transcriptional
Recorded self-cleavage determines the label; the label ranges are low end = under 0.2, middle = from 0.2 up to 0.5, high end = 0.5 and over

Use the examples below as a reference point.
> print(dat)
                           primary.sequence  label.value
1  GGCCGGCAUGGUCCUAGCCUCCUCGCUGGCGCCGGCUGGGCCACAUUCCGAGGGGACCGUCCCCUCGGUAAUGGCGAAUGGGACCCA [C15U A42C]      low end
2  GGCCGGCAUGGUCCCAGCCUCCUCGCUGGCGCAGGCUGGGCAACAUUCCGAGGGGACCGUCCCCUCGGUAAUGGCGAACGGGACCCA [C33A U79C]      low end
3  GGCCGGCAUGGUCCCAGCCUCCUCGCUGUCGCCGGCUGGGCAACAUUCCGAGGGGACCUUCCCCUCGGUAAUGGCGAAUGGGACCCA [G29U G59U]      low end
4  GGCCGGCAUGGUCCCAGCCCCCUCGCUGGCGCCGGCUGGGCAACAUUUCGAGGGGACCGUCCCCUCGGUAAUGGCGAAUGGGACCCA [U20C C48U]      low end
5  GGCCGUCAUGGUCCCAGCCUCCUCGCUGGCGCCGGCUGGGCAACAUUCCGAGGGGACCGUCCCCUCGGUAAUGGCGAAUGGGCCCCA [G6U A83C]      low end
6  GGCCGGCAUGGUCCCAGCCUUCUCGCUGGCGCCGGCUGGUCAACAUUCCGAGGGGACCGUCCCCUCGGUAAUGGCGAAUGGGACCCA [C21U G40U]      low end

# classify by self-cleavage band: GGCCGGCAUGGUCCCAGCCUCCUCGCUGGCGCCGGCUGGGCAACAUUCCGAGGGGACCGUCCCCUCGUUUAUGGCGAAUGGGACCCA [G68U A70U]
high end

Next entry: GGCCGGCAUGGUCCCAGCCUCCUCGUUGGCGCCGGCUGGGCAACAUUCCGAGGGGACCGUCCCGUCGGUAAUGGCGAAUGGGACCCA [C26U C64G]
high end

Same read-out for GGCCGGCAUGGUCCCAGCCUCCUCGCUGGCGCCGGCUGGGUAACAUUCCGAGGGGACCGUCCCCUCGGUAUUGGCGAAUGGGACCCA [C41U A71U] ?
high end

Same thing, different variant: GGCCGGCAUGGUCCCAGCCUCCUAGCUGGCGCCGGCUGGGCAACAUUCCGAGGGGACCGUCCCGUCGGUAAUGGCGAAUGGGACCCA [C24A C64G]
high end

Query GGCCGGCAUGUUCCCAGCCUCCUCGCUGGCGCCGGCUGGGCAACAUUCCGAGGGGACCGUCCCCUCGGUAAUGGCGAAUGGGAUCCA [G11U C84U] next
middle

Another variant: GGCCGGCAUGGUCCCAGCCUCCUCGCUGGCGCCGGCUGGGCAACCUUCCGAGGGGACCGUCCCCUCGGUAAUGGCGAAUGGGACCGA [A45C C86G]
middle

Check GGCCGGCAUGGUCCCAGCCUCCUCGCUGGCGCCGGCUGGGCAACAUUCCGAGGGGACCGUCCCCUCAGUAAUGGCGAAUGGGACACA [G67A C85A] too.
high end

Now the variant GGCCGGCAUGGUCCCUGCCUCCUCGCUGGCGCCGGCUGGGCAACAUUCCGAGGGGACCGUCCCCUCGGUAGUGGCGAAUGGGACCCA [A16U A71G]
high end

Would you mind doing GGCCGGCAUCGUCCCAGCCUCCUCGCUGGCGCCGGCUGGGCAACACUCCGAGGGGACCGUCCCCUCGGUAAUGGCGAAUGGGACCCA [G10C U46C] as well?
middle

Now try GGCCGGCAUGGUCCCUGCCUCCUCGCUGGCGCCGGCUGGGCAACAUUCCCAGGGGACCGUCCCCUCGGUAAUGGCGAAUGGGACCCA [A16U G50C] .
high end

Input GGCCGGCAUGGUCCCAGCCUCCUCGCUGGCGCGGGCUGGGCAACAUUCCGAGGGGACCGUCCCCUCGGUAAUGGCGAAUGGGACCCA [C33G]
low end

Also check GGCCGGCAUGGUCCCAGCCUCCUCGCUGGCGCCGGCUGGGCAACAUUCCGAGGAGACCGUCCCCUCGGUAUUGGCGAAUGGGACCCA [G54A A71U]
high end

Consider next the variant GGCCGGCAUGGUCCCAGCCUCCUCGCUGGCGCCGGCUGGGCAACAUUCCGAGGGGACCGUCCCCUCAGUAAUGGCGAAUGGGACCCG [G67A A87G] in the same way.
high end
